Numbers sourced from PubChem BioAssay (NCI).

# Test system: BT-549 breast
# experiment notes: NCI tumour cell line growth inhibition, 48 h

molecule: [O-]c1c[n+](CCCC[n+]2cc([O-])on2)no1
measured on: BT-549 breast
unit of measure: µM
comparator: >
TGI: 100

molecule: CCN1C(=S)n2cccc2C1CC(=O)c1ccc(Cl)cc1 (stereo unspecified)
measured on: BT-549 breast
unit of measure: µM
comparator: >
TGI: 100

molecule: CCCCCCCCCCCCNC(=O)[C@H]1CSC(c2cc3ccccc3s2)N1 (stereo partly specified)
measured on: BT-549 breast
unit of measure: µM
comparator: =
TGI: 4.11

molecule: N=c1oc2c(Br)cc(Br)cc2cc1C(=O)Nc1ccccn1
measured on: BT-549 breast
unit of measure: µM
comparator: >
TGI: 100

molecule: Sc1ccc2ccccc2c1CNCc1ccccc1
measured on: BT-549 breast
unit of measure: µM
comparator: =
TGI: 48.7

molecule: c1ccc(N=C(N2CCOCC2)N(CCN2CCOCC2)c2ccccc2)cc1
measured on: BT-549 breast
unit of measure: µM
comparator: >
TGI: 100

molecule: O=C1c2sc(-c3ccc(F)cc3)cc2-n2cccc21
measured on: BT-549 breast
unit of measure: µM
comparator: >
TGI: 100

molecule: C=CCc1c(C)nc(C)nc1N/N=C/C=C/c1ccccc1
measured on: BT-549 breast
unit of measure: µM
comparator: =
TGI: 63.2

molecule: CCc1c2c(nc3cc4c(c(N)c13)OCO4)-c1cc3c(c(=O)n1C2)COC(=O)[C@]3(O)CC
measured on: BT-549 breast
unit of measure: µM
comparator: =
TGI: 4.39

molecule: O=C(N/N=C/c1ccccc1O)C(O)(c1ccccc1)c1ccccc1
measured on: BT-549 breast
unit of measure: µM
comparator: >
TGI: 100

molecule: CC(C)/C(Cl)=N/OC(=O)Nc1cccc(C(F)(F)F)c1
measured on: BT-549 breast
unit of measure: µM
comparator: =
TGI: 15.6

====

As shown below, each of these molecules has a reported TGI value.
# Test system: HCT-15 colon
# experiment notes: NCI tumour cell line growth inhibition, 48 h
attribute measured: TGI

line notation: N.N.N.N.O=NN1CCCCCC1(P(=O)([O-])[O-])P(=O)([O-])[O-].[Pt+4].[Pt+4]
attribute measured: TGI
result: > 100 µM

line notation: COc1c(C)c2c(c3c1c(=O)c1ccccc1n3C)C=CC(C)(C)O2
attribute measured: TGI
result: > 100 µM

line notation: O=C1c2sc(-c3ccc(F)cc3)cc2-n2cccc21
attribute measured: TGI
result: > 100 µM

line notation: CNC(=O)c1c(NC(=O)c2ccc(C(F)(F)F)cc2)sc2c1CCC(=O)C2
attribute measured: TGI
result: 1.76 µM

line notation: CN(C)C(=S)N1C(=S)N(c2ccccc2)C(=Nc2ccccc2)C1=Nc1ccccc1
attribute measured: TGI
result: > 100 µM

line notation: CC(C)(C)OC(=O)[C@@H]1CCC(=S)N1Cc1ccccc1
attribute measured: TGI
result: > 100 µM

line notation: O=C1OC(c2ccccc2)=N/C1=C\c1ccc2ccccc2c1
attribute measured: TGI
result: > 100 µM

line notation: COc1ccc(C2=Nn3c(nc4sc(C)c(C)c4c3=O)SC2)cc1
attribute measured: TGI
result: > 100 µM

line notation: CC(/C=C/C(=O)c1sc(-n2nc(-c3ccccc3)cc2-c2ccccc2)nc1C)=C\c1ccccc1
attribute measured: TGI
result: 57.6 µM

line notation: COc1cccc(NC(=O)C(C)(C)C)c1C=O
attribute measured: TGI
result: > 100 µM

====

# System: SNB-75 CNS
# experiment notes: NCI tumour cell line growth inhibition, 48 h
Parameter TGI: see the listing below.
attribute measured: TGI

molecule: NC(=O)C1c2ccccc2C=Cc2ccccc21
measured on: SNB-75 CNS
result: > 100 µM

molecule: CCCCCCCCCCCCCCCCOCC(CN(C)CCN(C)C)OCCCCCCCCCCCCCCCC (stereo not drawn)
measured on: SNB-75 CNS
result: > 100 µM

molecule: Cc1ccc2[nH]c3c(C)c4c(c(C)c3c2c1)CN(C)C=C4
measured on: SNB-75 CNS
result: 2.27 µM

molecule: C=CCc1c(C)nc(C)nc1N/N=C/C=C/c1ccccc1
measured on: SNB-75 CNS
result: 91.6 µM

molecule: COc1ccc2c(c1O)C(=O)C(CCC(=O)O)CC2 (stereo not drawn)
measured on: SNB-75 CNS
result: > 100 µM

molecule: Nc1ccccc1SC(CC(=O)c1ccccc1)c1ccc([N+](=O)[O-])cc1 (stereo not drawn)
measured on: SNB-75 CNS
result: 23.3 µM

molecule: O=C(Nc1cc2c(=O)[nH]c3ccccc3c2oc1=O)c1cnccn1
measured on: SNB-75 CNS
result: > 100 µM

molecule: NC(=O)NC(=O)CCC(NS(=O)(=O)c1ccccc1)C(=O)NC(N)=O (stereo not drawn)
measured on: SNB-75 CNS
result: > 100 µM

molecule: CCN1C(=S)n2cccc2C1CC(=O)c1ccc(Cl)cc1 (stereo not drawn)
measured on: SNB-75 CNS
result: > 100 µM

molecule: CC(=O)OCc1ccc2oc(=O)c(C(=O)Oc3cccc(Cl)c3)cc2c1
measured on: SNB-75 CNS
result: > 100 µM

molecule: C[C@H]1C(=O)O[C@@H]1[C@H]1COC(C)(C)O1
measured on: SNB-75 CNS
result: > 100 µM

molecule: COc1c2c3ccccc3nc-2n(C)c2ccccc12
measured on: SNB-75 CNS
result: 35.4 µM

molecule: c1ccc(CSc2ccccc2CN2CCN(Cc3ccccc3SCc3ccccc3)CCN(Cc3ccccc3SCc3ccccc3)CC2)cc1
measured on: SNB-75 CNS
result: 4.18 µM

molecule: O=Nc1ccc(O)c2ccccc12
measured on: SNB-75 CNS
result: 3.02 µM

molecule: CC(C)CCSC1=CC(=O)c2ccccc2C1=O
measured on: SNB-75 CNS
result: > 46.9 µM

molecule: COc1cc(OC)c2ssc3c(OC)cc(OC)c4ssc1c2-c43
measured on: SNB-75 CNS
result: > 100 µM

molecule: C/C1=C/C(=O)O[C@@H]2C[C@@H](CC[C@H](C)/C=C\C=C\CC1)O[C@@](O)([C@@H]1CSC(=O)N1CO)C2
measured on: SNB-75 CNS
result: 0.0523 µM

molecule: CC(=O)NC(CCCCN(Cc1ccccc1)C(=O)NCCCl)C(=O)NCc1ccccc1 (stereo not drawn)
measured on: SNB-75 CNS
result: > 100 µM

====

# System: MCF7 breast
# experiment notes: NCI tumour cell line growth inhibition, 48 h
Where a SMILES comes first, the peptide text is derived from it. [ ]: non-standard residue; d: D form. The star is where a group is joined. Phe(4-NO2) = N[CH](Cc1ccc([N+](=O)[O-])cc1)C(=O)O; Cbz = O=C(OCc1ccccc1)*

molecule: Cc1[nH]n(C2=NCCN2)c(=O)c1C
TGI: > 100 µM
--
molecule: Cc1ccc2c3c(cnc2n1)C(=O)OCCN3C
TGI: > 100 µM
--
molecule: O=C(/C=C/c1ccc(O)c(O)c1)OCc1ccccc1
TGI: 37.9 µM
--
molecule: Cc1ccc(/C=N/Nc2nc3ccccc3s2)s1
TGI: > 100 µM
--
molecule: COc1cc2c3c(c4ccc(OC)c(OC)c4c2cc1OC)CN1CCC[C@@H]1C3
TGI: > 20.3 µM
--
molecule: COc1cc2c(c(OC)c1O)-c1ccc(OC)c(=O)cc1[C@@H](NC(=O)C(F)(F)F)CC2
TGI: > 100 µM
--
molecule: C=CCOc1ccc(/C(N=Nc2ccc(C)cc2)=N/NC(=O)c2ccccc2)cc1OC
TGI: 83.6 µM
--
molecule: CS/C(C#N)=C(\C#N)SC
TGI: 12.3 µM
--
molecule: CC(C)(C)N1C(=O)c2ccccc2C1(O)C(F)(F)F (centres undefined)
TGI: > 100 µM
--
molecule: CC(C)CCSC1=CC(=O)c2ccccc2C1=O
TGI: 3.63 µM
--
molecule: N=C(N)/N=C(\N)c1c(-c2cc(O)ccc2O)nc2sccn12
TGI: > 100 µM
--
molecule: CC(C)OC(=O)Nc1cccc(Cl)c1
TGI: > 100 µM
--
molecule: C=C(C)[C@@H]1CC[C@]2(C(N)=O)CC[C@]3(C)[C@H](CC[C@@H]4[C@@]5(C)CC[C@H](O)C(C)(C)[C@@H]5CC[C@]43C)[C@@H]12
TGI: 11.2 µM
--
molecule: COC(=O)[C@@]1(Cc2ccccc2)[C@H]2c3cc(C(=O)N4CCCC4)n(Cc4ccc(OC)c(OC)c4)c3C[C@H]2CN1C(=O)c1ccccc1
TGI: 44.8 µM
--
molecule: O=c1c(-c2c(-c3ccccc3)oc3ccc(Cl)cc3c2=O)c(-c2ccccc2)oc2ccc(Cl)cc12
TGI: > 100 µM
--
molecule: CN(C)CCCNC(=O)c1ccc2oc3cc4ccccc4c(=O)n3c2c1
TGI: > 50 µM
--
molecule: CCOC(=O)C(NC(=O)C(CCCCNP(=O)(OCC)OCC)NC(=O)C(C)NC(C)=O)C(C)C (centres undefined)
TGI: > 100 µM
--
molecule: CCCCCCCCCCCCNC(=O)[C@H]1CSC(c2cc3ccccc3s2)N1 (some centres undefined)
TGI: 9.15 µM
--
molecule: O=C(NO)c1ccc(OCc2cccc(Cl)c2)cc1
TGI: > 100 µM
--
molecule: Cn1cc(-c2csc(-c3cn(C)c4ccc(Br)cc34)n2)c2cnccc21
TGI: 3.43 µM
--
molecule: COc1cccc(C(=O)Nc2c3ccccc3nc3ccccc23)c1OC
TGI: > 100 µM
--
molecule: C[C@H]1CC[C@H]([C@@H](C)[C@H]2[C@@H](O)C[C@H]3[C@@H]4CC[C@H]5C[C@@H](O)CC[C@]5(C)[C@H]4CC[C@]23C)NC1
TGI: 47.2 µM
--
molecule: O=C1OC2C(O)COC2(O)C1(O)C(C[N+](=O)[O-])c1ccc(Cl)cc1 (centres undefined)
TGI: 5 µM
--
molecule: COc1ccccc1-c1cc(/C=C2\C(=O)Nc3ncc(Br)cc32)cc(Br)c1O
TGI: > 25 µM
--
molecule: COc1ccc(CC2c3cc(OC)c(OC)c(OC)c3CC[N+]2(C)C)cc1Oc1ccc(CC2c3cc4c(c(OC)c3CC[N+]2(C)C)OCO4)cc1 (centres undefined)
TGI: > 100 µM
--
molecule: C=CCc1c(C)nc(C)nc1N/N=C/C=C/c1ccccc1
TGI: 65.3 µM
--
molecule: Cc1ccccc1N=CN(C)C
TGI: > 100 µM
--
molecule: COc1cc(C2SCC(=O)N2Cc2ccccc2)cc(OC)c1OC (centres undefined)
TGI: > 100 µM
--
molecule: COC(=O)NC1(NC(=O)OC)NC(=O)c2cc(OC)c(OC)cc2N1
TGI: > 100 µM
--
molecule: CCOC(=O)CCC(NC(=O)OCc1ccccc1)C(=O)NC(CCC(=O)OCC)C(=O)NC(Cc1ccc([N+](=O)[O-])cc1)C(=O)NC(CCC(=O)OCC)C(=O)NC(CCC(=O)OCC)C(=O)OCC (centres undefined) (Cbz-E(OEt)E(OEt)[Phe(4-NO2)]E(OEt)E(OEt)-OEt; configuration not given here)
TGI: > 100 µM
--
molecule: Cc1cccc(O)c1-c1nnc(CCCCCCCCc2nnc(-c3c(C)cccc3O)n2N)n1N
TGI: > 100 µM
--
molecule: C1=Nc2ccc(cc2)N=Cc2ccccc2OCc2cccc(n2)COc2ccccc21
TGI: > 100 µM
--
molecule: COc1ccc(/C=N/n2c(=O)[nH]c3ccccc3c2=O)cc1
TGI: > 100 µM
--
molecule: COc1ccc2c(c1)CCN=C2Cc1ccccc1CCCl
TGI: > 100 µM
--
molecule: CCN1CCN(c2nc3ccccc3nc2C(=O)c2ccc(OC)cc2)CC1
TGI: 58.8 µM
--
molecule: CNC1C(O)C(OC2C(N)CC(N)C(OC3OC(CN)=CCC3N)C2O)OCC1(C)O (centres undefined)
TGI: > 100 µM
--
molecule: O=C1/C(=C\c2ccc(F)cc2)CN(C(=O)c2ccc([N+](=O)[O-])cc2)C/C1=C\c1ccc(F)cc1
TGI: 4.19 µM
--
molecule: CCOC(=O)C(Cc1c[nH]c2ccc([N+](=O)[O-])cc12)(NC(C)=O)C(=O)OCC
TGI: > 1000 µM
--
molecule: NC(=NCCCC1(c2ccccc2)CCCC1)Nc1ccc(Cl)cc1
TGI: 3.19 µM
